Measured growth, listed per entry for reference.
# Tested on: OVCAR-5 ovarian
# protocol.notes: NCI-60 one-dose screen, 48 h (100 = growth as untreated, 0 = no growth, -100 = all killed)
# test.parameters: 10 µM unless noted
About 83,000 compounds went through this panel and 20% of them were active in at least one assay; those are over-represented in the sample as a whole.

compound | growth / %
Cc1ccc(CNc2ccc3nc(CCC(C)C)[nH]c3c2)cc1 | 101
COc1ccccc1N(C(C)=O)C1=C(Cl)C(=O)c2ccccc2C1=O | 23.1
COc1ccc(/C=C(/c2ccccc2)[N+](=O)[O-])c(OC)c1 | -9.82
COc1cnc2c(c1)C(=O)c1c-2n(CCCCl)c(=O)c2ccncc12 | 116
CC1C(/C=N/NC(N)=S)C(C#N)(C#N)C1(C#N)C#N (stereo not given) | 116
CC1(C)CC2=C3C=C[C@@H]4[C@@]5(C)CCC(=O)C(C)(C)[C@@H]5CC[C@@]4(C)[C@]3(C)CC[C@@]2(C(=O)O)C[C@H]1O | 74.4
Cc1ccc(C2CC(c3nc(-c4ccc(Cl)cc4)oc3C)=NN2C(=O)c2ccncc2)cc1 (stereo not given) | 107
O=C(NNc1cnccn1)c1nc2cc(F)ccc2n2cccc12 | 31.2
C=Cc1cnc(Nc2ccc(OC)cc2)nc1NCCCNC(=O)C1CCC1 | 48
N#Cc1c(Nc2ccc(N3CCOCC3)cc2)nc(SCC(=O)c2ccc(Br)cc2)nc1-c1ccccc1 | 95.6

Values were extracted from PubChem BioAssay (NCI).
